Assignment: determine reported IC50 for the given compounds.
SYSTEM NAME: KRas G12D (Homo sapiens (Human), UniProt P01116, G12D)
ASSAY SUMMARY: KRas G12D Binding Assay (TR-FRET displacement of Cy5 labelled tracer)
APPLIED CONDITIONS: GDP-loaded KRAS G12D (amino acids 1:169), 60 minute incubation at 22° C.
Sequence (P01116 other isoform, or with tags, fused parts or gaps G12D): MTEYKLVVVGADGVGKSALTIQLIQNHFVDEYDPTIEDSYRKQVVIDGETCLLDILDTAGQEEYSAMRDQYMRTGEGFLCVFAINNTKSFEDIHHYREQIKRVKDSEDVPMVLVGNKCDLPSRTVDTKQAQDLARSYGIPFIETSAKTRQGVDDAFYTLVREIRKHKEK
# value in nM; strip the unit string

In: So what does the record say about IC50 for Fc1c(-c2cccc3cccc(Cl)c23)ncc2c(N3C[C@H]4CC[C@@H](C3)N4)nc(OCCc3cn4ccccc4n3)nc12 [Example 92] ?
Out: 1350

In: So what does the record say about IC50 for COCCCN1CCC(Oc2nc(N3C[C@H]4CC[C@@H](C3)N4)c3cnc(-c4cc(O)cc5ccccc45)c(F)c3n2)CC1 [Example 41] ?
Out: 76.7

In: So what does the record say about IC50 for CN1CCC[C@H]1COc1nc(N2C[C@H]3CC[C@@H](C2)N3)c2cnc(-c3cccc4ccc(F)cc34)c(F)c2n1 [Example 19] ?
Out: 122

In: So what does the record say about IC50 for CN1CCC[C@H]1COc1nc(N2C[C@H]3CC[C@@H](C2)N3)c2cnc(-c3cccc4cccc(CCC#N)c34)c(F)c2n1 [Example 117, bis(2,2,2-trifluoroacetate)] ?
Out: 732

In: So what does the record say about IC50 for CO[C@H]1C[C@@H](COc2nc(N3C[C@H]4CC[C@@H](C3)N4)c3cnc(-c4cccc5cccc(Cl)c45)c(F)c3n2)N(C)C1 [Example 149] ?
Out: 870

In: So what does the record say about IC50 for CCc1cccc2cccc(-c3ncc4c(N5CC6CCC(C5)N6)nc(OC[C@]56CCCN5[C@@H](COC(=O)NC)CC6)nc4c3F)c12 (single isomer, unassigned) [Example 432] ?
Out: 1.9

In: So what does the record say about IC50 for CN1CCC[C@H]1COc1nc(N2CC3CCC(C2)N3)c2cnc(-c3cccc4cccc(C#N)c34)c(F)c2n1 [Example 192] ?
Out: 225

In: So what does the record say about IC50 for CC(C)Cn1ccnc1CCOc1nc(N2C[C@H]3CC[C@@H](C2)N3)c2cnc(-c3cc(O)cc4ccccc34)c(F)c2n1 [Example 85] ?
Out: 454

In: So what does the record say about IC50 for O=C(O)CCOc1nc(N2C[C@H]3CC[C@@H](C2)N3)c2cnc(-c3cccc4cccc(Cl)c34)c(F)c2n1 [Example 61] ?
Out: 4080

In: So what does the record say about IC50 for Fc1c(-c2cccc3cccc(Cl)c23)ncc2c(N3C[C@H]4CC[C@@H](C3)N4)nc(OCC34CCCN3CCOC4)nc12 (some centres unmarked) [Example 200] ?
Out: 230

In: So what does the record say about IC50 for Cc1cccc2cccc(-c3ncc4c(N5C[C@H]6CC[C@@H](C5)N6)nc(OCCc5nccn5C)nc4c3F)c12 [Example 100] ?
Out: 1950

In: So what does the record say about IC50 for COc1cccc2cccc(-c3ncc4c(N5C[C@H]6CC[C@@H](C5)N6)nc(OCC56CCCN5CCC6)nc4c3F)c12 [Example 236] ?
Out: 25

In: So what does the record say about IC50 for Cn1ccc2cccc(-c3ncc4c(N5C[C@H]6CC[C@@H](C5)N6)nc(OCC56CCCN5CCC6)nc4c3F)c21 [Example 446] ?
Out: 357

In: So what does the record say about IC50 for Nc1nc2c(-c3ncc4c(N5C[C@H]6CC[C@@H](C5)N6)nc(OCC56CCCN5CCC6)nc4c3F)ccc(F)c2s1 [Example 455] ?
Out: 17

In: So what does the record say about IC50 for C#Cc1cccc2cc(O)cc(-c3ncc4c(N5C[C@H]6CC[C@@H](C5)N6)nc(OC[C@@]56CCCN5C[C@H](F)C6)nc4c3F)c12 [Example 243] ?
Out: 0.4

In: So what does the record say about IC50 for C[C@@H]1C[C@@H]1c1ccccc1-c1ncc2c(N3C[C@H]4CC[C@@H](C3)N4)nc(OCC34CCCN3CCC4)nc2c1F [Example 286] ?
Out: 17.2

In: So what does the record say about IC50 for CN1CCC[C@H]1COc1nc(N2C[C@H]3CC[C@@H](C2)N3)c2cnc(-c3cc(O)cc4ccccc34)c(Cl)c2n1 [Example 191] ?
Out: 69.1

In: So what does the record say about IC50 for Oc1cccc2cccc(-c3ncc4c(N5C[C@H]6CC[C@@H](C5)N6)nc(OCC56CCCN5CCC6)nc4c3F)c12 [Example 237] ?
Out: 500

In: So what does the record say about IC50 for Cn1ccnc1CCOc1nc(N2C[C@H]3CC[C@@H](C2)N3)c2cnc(-c3cccc4cccc(Cl)c34)c(F)c2n1 [Example 114] ?
Out: 482

---

Assignment: determine reported IC50 for the given compounds.
SYSTEM NAME: KRas G12D (Homo sapiens (Human), UniProt P01116, G12D)
ASSAY SUMMARY: KRas G12D Binding Assay (TR-FRET displacement of Cy5 labelled tracer)
APPLIED CONDITIONS: GDP-loaded KRAS G12D (amino acids 1:169), 60 minute incubation at 22° C.
# value in nM; strip the unit string

In: So what does the record say about IC50 for CN1CCC[C@H]1COc1nc(N2C[C@H]3CC[C@@H](C2)N3)c2cnc(-c3cccc4ccc(F)c(Cl)c34)c(F)c2n1 ?
Out: 33.7

In: So what does the record say about IC50 for Fc1c(-c2cccc3cccc(Cl)c23)ncc2c(N3C[C@H]4CC[C@@H](C3)N4)nc(OC3CCc4cn[nH]c4C3)nc12 (stereo partly shown) ?
Out: 4560

In: So what does the record say about IC50 for OCCc1cccc2cccc(-c3ncc4c(N5C[C@H]6CC[C@@H](C5)N6)nc(OCC56CCCN5CCC6)nc4c3F)c12 ?
Out: 2

In: So what does the record say about IC50 for OC[C@@H](O)COc1nc(N2C[C@H]3CC[C@@H](C2)N3)c2cnc(-c3cccc4cccc(Cl)c34)c(F)c2n1 ?
Out: 5920

In: So what does the record say about IC50 for Cc1cccc2cccc(-c3cc4nc(OC[C@@H]5CCCN5C)nc(N5C[C@H]6CC[C@@H](C5)N6)c4cn3)c12 ?
Out: 1440

In: So what does the record say about IC50 for C#Cc1cccc2cccc(-c3ncc4c(N5C[C@H]6CC[C@@H](C5)N6)nc(OC[C@]56CCCN5C[C@@H](F)C6)nc4c3F)c12 ?
Out: 1.2

In: So what does the record say about IC50 for CCc1cccc2cc(O)cc(-c3ncc4c(N5C[C@H]6CC[C@@H](C5)N6)nc(OC[C@@]56CCCN5C[C@H](F)C6)nc4c3F)c12 ?
Out: 0.8

In: So what does the record say about IC50 for Oc1cc(-c2ncc3c(N4C[C@H]5CC[C@@H](C4)N5)nc(OCCc4ccc(F)cn4)nc3c2F)c2ccccc2c1 ?
Out: 95.8

---

SYSTEM NAME: KRas G12D (Homo sapiens (Human), UniProt P01116, G12D)
ASSAY SUMMARY: KRas G12D Surface Plasmon Resonance (SPR) Binding Assay
APPLIED CONDITIONS: Biacore T200, immobilized biotinylated KRAS protein, 1:1 binding model
Sequence (P01116-2 other isoform, or with tags, fused parts or gaps G12D): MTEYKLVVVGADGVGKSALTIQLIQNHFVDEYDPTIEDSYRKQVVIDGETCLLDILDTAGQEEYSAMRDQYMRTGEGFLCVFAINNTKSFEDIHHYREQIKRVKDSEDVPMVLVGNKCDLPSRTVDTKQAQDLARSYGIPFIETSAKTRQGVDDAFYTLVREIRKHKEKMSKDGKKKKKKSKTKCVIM
READOUT TYPE: pKd
# pKd = -log10(concentration in molar units)

In: So what does the record say about pKd for Oc1cc(-c2ncc3c(N4C[C@H]5CC[C@@H](C4)N5)nc(OCCCC(F)(F)F)nc3c2F)c2ccccc2c1 [Example 38] ?
Out: 6.12

In: So what does the record say about pKd for Oc1cc(-c2ncc3c(N4C[C@H]5CC[C@@H](C4)N5)nc(OCCN4CCOCC4)nc3c2F)c2ccccc2c1 [Example 25] ?
Out: 6.57

In: So what does the record say about pKd for CN(C)C1CN(c2nc(N3C[C@H]4CC[C@@H](C3)N4)c3cnc(-c4cccc5cccc(Cl)c45)c(F)c3n2)C1 [Example 122] ?
Out: 5.47

In: So what does the record say about pKd for Oc1cc(-c2ncc3c(N4C[C@H]5CC[C@@H](C4)N5)nc(OCCc4ncccn4)nc3c2F)c2ccccc2c1 [Example 7] ?
Out: 6.33

In: So what does the record say about pKd for Cn1ccnc1CCNc1nc(N2C[C@H]3CC[C@@H](C2)N3)c2cnc(-c3cc(O)cc4ccccc34)c(F)c2n1 [Example 111] ?
Out: 6.56

In: So what does the record say about pKd for Fc1c(-c2cccc3cccc(Cl)c23)ncc2c(N3C[C@H]4CC[C@@H](C3)N4)nc(OCCn3cccn3)nc12 [Example 147] ?
Out: 4.73

In: So what does the record say about pKd for O=Cc1cc(CCCOc2nc(N3C[C@H]4CC[C@@H](C3)N4)c3cnc(-c4cccc5cccc(Cl)c45)c(F)c3n2)ccc1O [Example 320] ?
Out: 4.15

In: So what does the record say about pKd for O[C@@H]1C[C@@H]2CN(c3nc(OC[C@@]45CCCN4C[C@H](F)C5)nc4c(F)c(-c5cccc6cccc(Cl)c56)ncc34)C[C@H]1N2 [Example 395] ?
Out: 8.59

In: So what does the record say about pKd for CC1(N)CN(c2nc(N3C[C@H]4CC[C@@H](C3)N4)c3cnc(-c4cc(O)cc5ccccc45)c(F)c3n2)C1 [Example 124] ?
Out: 7.64

In: So what does the record say about pKd for Fc1c(-c2cccc3cccc(Cl)c23)ncc2c(N3C[C@H]4CC[C@@H](C3)N4)nc(OC3CCc4[nH]ncc4C3)nc12 (some centres unmarked) [Example 142] ?
Out: 4.86
